test_name: Test Example 2 (absorption properties at time of oral administration to rat)
Assay type: in vivo
recorded_conditions: male, CD (SD), plasma, po, 30 mg/kg, single oral, 30 mg/kg, 1 hr, mean ± SD (n = 4), read-out: Unchanged compound level in blood plasma 1 hr
measurement_name: concentration at 1 hr
State the value with its unit after it.

Challenge: For the compound shown here, O=C(c1cc(Cl)c(O)c(Cl)c1)N1CS(=O)(=O)c2ccccc21 [Example 1] , give the reported concentration at 1 hr.
Response given: 49800 ng/mL

====

test_name: Test Example 2 (absorption properties at time of oral administration to rat)
Type: in vivo
recorded_conditions: male, CD (SD), plasma, po, 300 mg/kg, single oral, 300 mg/kg, 4 hr, mean ± SD (n = 4), read-out: Unchanged compound level in blood plasma 4 hr
measurement_name: concentration at 4 hr (µg/mL)
Numbers only here, please. The scale is µg/mL.

Challenge: For the compound shown here, `O=C(c1cc(Cl)c(O)c(Cl)c1)N1CS(=O)(=O)c2ccccc21` , give the reported concentration at 4 hr.
Response given: 314
